- tested-on: T1, RBFOX1 RRM (Homo sapiens, UniProt Q9NWB1 109-208)
- T1 sequence: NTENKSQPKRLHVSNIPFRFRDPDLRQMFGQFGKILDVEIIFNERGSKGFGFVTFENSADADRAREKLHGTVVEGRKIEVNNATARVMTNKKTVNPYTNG
- method-summary: EMSA; HiTS-Eq, 1 nM pool, 10 min; buffer printed only for the single-RNA assays: 10 mM Tris pH 7.5, 150 mM NaCl, 3.4 mM EDTA, 0.001% NP-40, 30 C
- measurement-setup: tags: His6 N-terminal (pET28a); label: 5' 32P
The full ranking holds about 16,000 sequences; the median of “ka relative to ugcaugu” is about 0.0091, and the highest 2% start at about 0.032. Shown is part of a subset that was picked to be rich in the highest values.
observation-type: binding signal

Recorded binding signal, per entry:
binder="UGGGCCG (DNA:RNA) RNA: GGGAGACCGGAAUUCAGAUUGUCCUGGGCCGUUAAAUCCCGUCGUAGCCACCA DNA 1: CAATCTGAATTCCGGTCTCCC DNA 2: TGGTGGCTACGACGGGATT" experimental_result="0.0335 KA relative to UGCAUGU"
binder="UGGGCCU (DNA:RNA) RNA: GGGAGACCGGAAUUCAGAUUGUCCUGGGCCUUUAAAUCCCGUCGUAGCCACCA DNA 1: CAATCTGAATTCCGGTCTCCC DNA 2: TGGTGGCTACGACGGGATT" experimental_result="0.0237 KA relative to UGCAUGU"
binder="UGGCCGU (DNA:RNA) RNA: GGGAGACCGGAAUUCAGAUUGUCCUGGCCGUUUAAAUCCCGUCGUAGCCACCA DNA 1: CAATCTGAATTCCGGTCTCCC DNA 2: TGGTGGCTACGACGGGATT" experimental_result="0.023 KA relative to UGCAUGU"

Now take the following binder into account.
Task: Field request: binding signal | item: UGGGGCC (DNA:RNA) RNA: GGGAGACCGGAAUUCAGAUUGUCCUGGGGCCUUAAAUCCCGUCGUAGCCACCA DNA 1: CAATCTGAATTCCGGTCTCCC DNA 2: TGGTGGCTACGACGGGATT
Output: 0.0345 KA relative to UGCAUGU
